tgt: Potassium voltage-gated channel subfamily A member 3 (Mus musculus)
Sequence (P16390 whole entry): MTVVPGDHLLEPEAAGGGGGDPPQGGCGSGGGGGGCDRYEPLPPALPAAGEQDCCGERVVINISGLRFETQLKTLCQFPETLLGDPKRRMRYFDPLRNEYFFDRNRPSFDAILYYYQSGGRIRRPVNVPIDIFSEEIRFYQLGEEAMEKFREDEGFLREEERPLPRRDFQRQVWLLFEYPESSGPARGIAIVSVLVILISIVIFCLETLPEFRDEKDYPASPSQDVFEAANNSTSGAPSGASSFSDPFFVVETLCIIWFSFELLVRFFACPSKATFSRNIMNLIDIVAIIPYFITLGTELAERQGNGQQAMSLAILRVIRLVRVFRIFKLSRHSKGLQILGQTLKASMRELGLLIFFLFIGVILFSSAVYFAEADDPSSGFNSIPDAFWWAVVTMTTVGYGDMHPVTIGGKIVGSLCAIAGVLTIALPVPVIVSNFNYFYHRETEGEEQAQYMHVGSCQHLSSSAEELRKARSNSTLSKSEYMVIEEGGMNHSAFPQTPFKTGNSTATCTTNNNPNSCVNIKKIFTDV
assayName: Effect on blockade of mouse Kv1.3 channel expressed in L929 cells
For each entry below, report its EC50 value.

I would be grateful if you could provide EC50 for each of the following entries.
1. COc1c(C(C)=O)c(O)c(OCc2ccc(F)cc2)c2occc12
2. COc1c(C(C)=O)c(O)c(OCc2ccccc2Cl)c2occc12
3. COc1c(O)c(C(C)=O)c(OCc2cccc(Cl)c2)c2ccoc12

700 nM
700 nM
1400 nM
